Data origin, for the record: ChEMBL document CHEMBL1147144

Test system: Kidney
testDetails: Biodistribution in ICR mouse kidney at 5 to 10 uCi, iv after 30 mins
Assay type: ADME, organism-based
measurementConditions: in vivo, 0.5 h
metric: Drug uptake
Please answer using a numeric value trailed by its unit.

Study these solved cases before continuing.
# chemSmiles, Drug uptake
records = [
    ("CN(C)c1ccc(/C=C/c2cnc(OCCO)c([125I])c2)cc1", "4.19 % ID/g"),
    ("CNc1ccc(/C=C/c2cnc(OCCOCCOCCF)c([125I])c2)cc1", "3.4 % ID/g"),
    ("CNc1ccc(/C=C/c2cnc(OCCO)c([125I])c2)cc1", "3.73 % ID/g"),
    ("CN(C)c1ccc(/C=C/c2cnc(OCCOCCOCCF)c([125I])c2)cc1", "3.32 % ID/g"),
]

# input for lookup
Query: Record `OCCOc1ncc(/C=C/c2ccc(O)cc2)cc1[125I]` : what is its Drug uptake with Kidney?
Result: 10 % ID/g
